- Test system: Noggin (protein binding on small-molecule microarray)
- Protocol summary: Noggin binders on small-molecule microarray, primary screen, biochemical, 635/667 nm fluorescence (AID 1095);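 further: score merges 667 nm feature fluorescence with signal to noise over triplicate slides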
- Conditions used: 635 nm fluorescence, higher = more signal
A collection of compounds and their measured composite z-score
Quantity: composite z-score

Compound	Result
[N-]=[N+]=NCc1ccccc1C[C@@]1(C(N)=O)N=C(c2ccc(OCCCO)cc2)O[C@@H]1c1ccccc1CN=[N+]=[N-]	-0.0392
CC1CC/C=C\[C@H]2OC34C=CCN(c5ccc6ccccc6c5)C(=O)[C@H]3N(C(CO)C(C)C)C(=O)[C@@H]4C2C(=O)O1 (some centres undefined)	-0.0033
[N-]=[N+]=Nc1ccccc1[C@@H]1OC(c2ccc(OCCCO)cc2)=N[C@]1(CCS(=O)(=O)c1ccccc1)C(=O)NCCN1CCOCC1	0.038
O=C(NC1CC1)[C@@H]1c2ccccc2C(=O)N(Cc2ccccc2)[C@H]1c1ccc(CO)cc1	-0.43
